Molecular target: mGFP-K-RASG12V (Homo sapiens (Human), UniProt P01116, G12V)
Experiment: K-Ras mislocalization assay (confocal microscopy, Manders coefficient)
Assay type: cell-based
Settings: MDCK cells, 48 h; read-out: KRAS mislocalization potency
observable: IC50 (nM)
The figure you give is taken to be in nM; do not add the unit.

[Q] Please report the recorded IC50 for `COc1ccc([C@@H](C)N(CC=C(c2ccccc2)c2ccccc2)CCCN2CCN(C)CC2)cc1` .
[A] 20

---

System: NCI-H1299 (WT) lung tumor cells
Assay: CyQUANT proliferation assay
Type: cell-based
Settings: Homo sapiens, NCI-H1299; Table 11, lung; read-out: IC50 (μM) NCI H1299 (WT)
observable: IC50 (µM)
The figure you give is taken to be in µM; do not add the unit.

Solved cases (2 shown):
CC(NCCC(c1ccccc1)c1ccccc1)c1ccccc1 (stereo not drawn) [Fendiline] :: 24.3
COc1ccc([C@@H](C)N(CC=C(c2ccccc2)c2ccccc2)CCCN2CCN(C)CC2)cc1 [NY0335] :: 8.2

[Q] Please report the recorded IC50 for COc1ccc([C@@H](C)N(CC=C(c2ccccc2)c2ccccc2)CCN2CCN(C)CC2)cc1 [NY0244] .
[A] 8.2

---

Catalogue of IC50 values
Biological target: mGFP-K-RASG12V (Homo sapiens (Human), UniProt P01116, G12V)
Test: K-Ras mislocalization assay (confocal microscopy, Manders coefficient)
Format: cell-based
Details: MDCK cells, 48 h treatment; read-out: IC50 (μM), KRASG12V mislocalization

Solved cases (2 shown):
O=C(Nc1ccc(F)cc1)N(CC=C(c1ccccc1)c1ccccc1)CCN1CCCC1 [PW279] :: 3.4 µM
COc1ccc(C(=CCN(CCN2CCCC2)[C@H](C)c2ccc(F)cc2)c2ccc(OC)cc2)cc1 [PW356] :: 2.44 µM

[Q] Please report the recorded IC50 for C[C@H](c1ccc(F)cc1)N(CC=C(c1ccccc1)c1ccccc1)CCn1cc(CN)nn1 [PW305] .
[A] 0.507 µM

[Q] Please report the recorded IC50 for CN1CCN(CCN(CC=C(c2ccccc2)c2ccccc2)[C@@H]2CCc3ccccc32)CC1 [NY0369b] .
[A] 90.1 µM

---

Biological target: mGFP-K-RASG12V (Homo sapiens (Human), UniProt P01116, G12V)
Test: K-Ras mislocalization assay (confocal microscopy, Manders coefficient)
Format: cell-based
Conditions: batch 4 compounds; MDCK cells, 48 h; title calls it IC50; read-out: EC50
Catalogue of pEC50 values
Please express pEC50 as -log10 of the molar concentration.

Solved cases (10 shown):
C(CN(CCN1CCCC1)[C@@H]1C[C@H]1c1ccccc1)=C(c1ccccc1)c1ccccc1 :: 5.25
COC(=O)[C@@H](c1ccccc1)N(CC=C(c1ccccc1)c1ccccc1)CC=C(c1ccccc1)c1ccccc1 :: 5.05
C[C@@H](NCC(=O)N1c2ccccc2CCc2ccccc21)c1ccccc1 :: 5.16
COC(=O)[C@H](CC(C)C)NC(=O)[C@H](NCC=C(c1ccccc1)c1ccccc1)c1ccccc1 :: 5.23
COC(=O)[C@@H](c1ccccc1)N(CC=C(c1ccccc1)c1ccccc1)C(=O)NC(C)(C)C :: 5.92
COc1ccc([C@@H](C)N(CC=C(c2ccccc2)c2ccccc2)CCN2CCN(C(=O)NC(C)(C)C)CC2)cc1 :: 5.74
CCNC(=O)N(CC=C(c1ccccc1)c1ccccc1)[C@H](C)c1ccc(OC)cc1 :: 6.04
CCCN1CCN(CCN(CC=C(c2ccccc2)c2ccccc2)[C@H](C)c2ccc(OC)cc2)CC1 :: 5.49
C[C@H](c1ccc(Cl)cc1)N(CC=C(c1ccccc1)c1ccccc1)CCN1CCCC1 :: 5.36
C[C@H](c1ccccc1)N(CC=C(c1ccccc1)c1ccccc1)CCN1CCN(C)CC1 :: 6.19

[Q] Please report the recorded pEC50 for `C[C@@H](NCC(=O)N1c2ccccc2CCc2ccccc21)c1ccc(F)cc1` .
[A] 5.41

[Q] Please report the recorded pEC50 for `COc1ccc([C@@H](C)N(CC=C(c2ccccc2)c2ccccc2)CCN2CCC2)cc1` .
[A] 6.31

[Q] Please report the recorded pEC50 for `COc1ccc([C@@H](C)N(CC=C(c2ccccc2)c2ccccc2)CCCN2CCCC2)cc1` .
[A] 5.75

[Q] Please report the recorded pEC50 for `CN1CCN(CCN(CC=C(c2ccccc2)c2ccccc2)[C@@H]2C[C@H]2c2ccccc2)CC1` .
[A] 6.02

[Q] Please report the recorded pEC50 for `C[C@H](c1ccc([N+](=O)[O-])cc1)N(CC=C(c1ccccc1)c1ccccc1)CCN1CCN(C)CC1` .
[A] 5.29

[Q] Please report the recorded pEC50 for `C[C@@H](NCCN1c2ccccc2Sc2ccccc21)c1ccc(F)cc1` .
[A] 5.37

[Q] Please report the recorded pEC50 for `C[C@H](c1ccc(F)cc1)N(CC=C(c1ccccc1)c1ccccc1)CCN1CCCC1` .
[A] 6.28
